All values here come from patent US10973936B2.

system-under-test: folate receptor (Homo sapiens)
Construct: endogenous in cells
Sequence (P15328 25-234): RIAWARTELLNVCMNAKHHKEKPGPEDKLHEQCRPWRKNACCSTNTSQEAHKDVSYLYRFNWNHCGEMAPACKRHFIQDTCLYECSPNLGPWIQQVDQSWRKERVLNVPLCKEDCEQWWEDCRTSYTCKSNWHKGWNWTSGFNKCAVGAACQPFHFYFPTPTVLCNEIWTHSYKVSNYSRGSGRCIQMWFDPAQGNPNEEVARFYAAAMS
method-notes: In vitro binding affinity assay, displacement of 3H-folic acid on KB cells
measurement-conditions: 3H-folic acid 0.82 nM, 4° C., 30 min, three independent experiments, read-out: mean inhibitory concentration of 50% (IC50 value)
pIC50: −log10 of the molar value.
quantity-kind: pIC50

Nc1nc2ncc(CNc3ccc(C(=O)NC(CCC(=O)O)C(=O)NC(Cc4cn(C5OC(CO)C(O)C(O)C5F)nn4)C(=O)O)cc3)nc2c(=O)[nH]1 (stereo not drawn) [α-glucose folate, α-[^19F]-Glucose Folate] ... 8.85
Nc1nc2ncc(CNc3ccc(C(=O)NC(CCC(=O)NC(Cc4cn(C5OC(CO)C(O)C(O)C5F)nn4)C(=O)O)C(=O)O)cc3)nc2c(=O)[nH]1 (centres unmarked) [γ-glucose folate, γ-[^19F]-Glucose Folate] ... 8.80
